# experiment: Human HepG2 cell viability assay in 384 well format
# Assay type: toxicity, cell-based
# Design: dose 125 nL, time 70.5 hour; concentration not given beside the values
# experimentalConditions: HepG2 cells, read-out: Inhibition
Reported cytotoxicity at 70.5 h values are given for each entry in this list.
Don't forget the unit after the number, please.

Check out these entries, answers already filled in.
{"molecule": "CN(Cc1nc(C(C)(C)C)no1)C1CCS(=O)(=O)C1 (centres undefined)", "cytotoxicity at 70.5 h": "6.01%"}
{"molecule": "NC(=O)c1cnc(NC2CCN(C(=O)C3CC3)CC2)c(Cl)c1", "cytotoxicity at 70.5 h": "-0.537%"}
{"molecule": "CCOc1ccc(C(C)NC(=O)N2CCC(C(N)=O)CC2)cc1OC (centres undefined)", "cytotoxicity at 70.5 h": "-10.4%"}
{"molecule": "Cc1nn(C)c2c(=O)n(CC(=O)NC3CCCCC3)ccc12", "cytotoxicity at 70.5 h": "-1.28%"}
{"molecule": "Cc1nn(C)c2c(N3CCN(C)CC3)nc(C3CC3)nc12", "cytotoxicity at 70.5 h": "-11.8%"}

The recorded cytotoxicity at 70.5 h for entry CCc1nccc(CN2CCCC(c3nn(C)c(=O)n3CC)C2)n1 (centres undefined) equals -3.33%

The recorded cytotoxicity at 70.5 h for entry CC(Cn1cccn1)NC(=O)NCCc1cccnc1 (centres undefined) equals -8.85%
